Tested on: KM12
Assay: NCI tumour cell line growth inhibition, 48 h
Active and inactive are the calls of the source. Rule as the data show it: active = GI50 up to about 1.1 µM and inactive = higher.
experimental endpoint: GI50

> print(dat)
                                    molecule  experimental.endpoint               result
 1  BrC12C3C4C5C(C(C43)C13OCCO3)C52 (stereo not drawn)                   GI50  > 100 µM (inactive)
 2                   NCc1ccc(-c2ccc(CN)s2)s1                   GI50  > 100 µM (inactive)
 3  NC1CC(Cl)c2c(Cl)sc(Cl)c21 (stereo not drawn)                   GI50  > 100 µM (inactive)
 4  CN(C)C(=S)/N=c1\ss/c(=N\C(=S)N(C)C)n1-c1ccc(Cl)cc1                   GI50  > 100 µM (inactive)
 5                 Cc1ccc(C(=N)Nc2ccccc2)cc1                   GI50  > 100 µM (inactive)
 6  CN(C)CCNc1ccc([N+](=O)[O-])c2sc3ccccc3c(=O)c12                   GI50   5.19 µM (inactive)
 7  NC1c2c(Br)sc(N3CCCC3)c2C(=O)C1O (stereo not drawn)                   GI50   > 50 µM (inactive)
 8           O=c1[nH]c(=O)n([C@H]2CCCO2)cc1F                   GI50    813 µM (inactive)
 9               N#C/C(=C/C=C/c1ccco1)C(N)=O                   GI50   > 10 µM (inactive)
10  O=C1c2cccc([N+](=O)[O-])c2C(=O)N1Cc1ccccc1                   GI50  > 100 µM (inactive)
11  CCOC(=O)c1csc(CCCCCCc2nc(C(=O)OCC)cs2)n1                   GI50  > 100 µM (inactive)
12  C1=C(c2ccccc2)SC(N2CCCCC2)S1 (stereo not drawn)                   GI50  > 100 µM (inactive)
13  c1ccc(CN2CCC3(CC2)SSC2(CCN(Cc4ccccc4)CC2)S3)cc1                   GI50   45.3 µM (inactive)

----------
System: MDA-MB-435
Experiment: NCI tumour cell line growth inhibition, 48 h
Active and inactive are the calls of the source. Cut-off read from the data, not from the text of the source: active = GI50 up to about 1.1 µM and inactive = higher.
Classes used: 1 for active, 0 for inactive

> print(dat)
                                   molecule  tested.target  category
1  CC[C@@]1(O)C(=O)OCc2c1cc1n(c2=O)Cc2c-1nc1ccccc1c2/C=N\NC(=O)C(N)CC(C)C (stereo partly specified)     MDA-MB-435         1
2                  CN(C)c1cccc(NC2=NCCO2)c1     MDA-MB-435         0
3    NC1Cc2ccccc2OC1=O (stereo unspecified)     MDA-MB-435         0
4  Cc1ccc(OCC2OC(n3cnc4c(N(C)C)nc(Br)nc43)CC2Oc2ccc(C)cc2)cc1 (stereo unspecified)     MDA-MB-435         0
5  CCOC(=O)c1c2ccccc2n2c(=O)n(-c3ccc(OC)cc3)nnc12     MDA-MB-435         0
6     Nc1nc(N)c2cc(-c3cc4ccccc4[nH]3)ccc2n1     MDA-MB-435         0

----------
System: XF498
Experiment: NCI tumour cell line growth inhibition, 48 h
The source made the active and inactive calls. Cut-off read from the data, not from the text of the source: active = GI50 up to about 1.1 µM and inactive = higher.
# GI50 per entry
experimental endpoint: GI50

> print(dat)
                                    compound               result
 1  C1CN(P2(N3CC3)=NP(N3CC3)(N3CC3)=NP(N3CC3)(N3CC3)=N2)CCO1 (stereo not drawn) [FOTRETAMINE]  > 100 µM (inactive)
 2              CNc1ccc2ncccc2c1[N+](=O)[O-]  > 100 µM (inactive)
 3  Nc1ccn(CC(CO)CC(c2ccccc2)P(=O)(O)O)c(=O)n1 (stereo not drawn)  > 100 µM (inactive)
 4          N#[N+][c-]1c(-c2ccccc2)n[nH]c1=O  > 100 µM (inactive)
 5   COC(=O)c1cc(CC(C)C)c2c(c1)[nH]c1ccccc12  > 100 µM (inactive)
 6  N#Cc1c(N)c(C(=O)O)nn(-c2cccc(C(F)(F)F)c2)c1=O  > 100 µM (inactive)
 7                COC(=O)/C(C=O)=C/Sc1ccccc1     40 µM (inactive)
 8  Cc1ccc(NCC2(/N=C/c3ccccc3)OC(CO)C(O)C2O)cc1 (stereo not drawn)  > 100 µM (inactive)
 9  O=C1OC(c2ccccc2)=N/C1=C/NC(Cc1c[nH]c2ccccc12)C(=O)O (stereo not drawn)  > 100 µM (inactive)
10  COC(=O)c1oc([N+](=O)[O-])c(-c2ccccc2)c1-c1ccccc1  > 100 µM (inactive)
11  CN1N=C(N)c2cn(C3OC(COP(=O)(O)O)C(O)C3O)c3ncnc1c23 (stereo not drawn)   12.4 µM (inactive)
12   NCCCCNCCCNC(=O)c1nc(-c2csc(CCN)n2)sc1Cl  > 100 µM (inactive)
13  C=CCn1c2c(sc1=S)C(S)NC=N2 (stereo not drawn)  > 100 µM (inactive)

----------
System: A498
Assay: NCI tumour cell line growth inhibition, 48 h
Active and inactive are the calls of the source. No stated cut-off is given here; in the data, active = GI50 up to about 1.1 µM and inactive = higher.
Outcomes: TRUE for active, FALSE for inactive

> print(dat)
                                    compound  category
 1   NC(C(=O)O)c1cc(O)no1 (stereo not given)     FALSE
 2  CC(=O)C1(Cc2cccc3ccccc23)S(=O)(=O)OCCOS1(=O)=O     FALSE
 3  CN(C)CC1CC/C(=C\c2ccc(Cl)cc2)C1=O (stereo not given)     FALSE
 4  CCc1nc(N)nc(N)c1-c1ccc(Cl)c(/N=N/N(C)C)c1     FALSE
 5     O=C1CCCCN1C(=O)c1ccc([N+](=O)[O-])cc1     FALSE
 6  NS(=O)(=O)c1nnc(NS(=O)(=O)c2cccc3cccnc23)s1     FALSE
 7  CCOC(=O)/C(C(=O)Nc1cccc(Cl)c1)=C(/N)N1CCCC1     FALSE
 8  CC(Nc1cccc(Cl)c1)c1ccncc1 (stereo not given)     FALSE
 9  COC(=O)C[C@H](COCc1ccccc1)NC(=O)C[C@H](COCc1ccccc1)NC(=O)C[C@H](COCc1ccccc1)NC(=O)OC(C)(C)C     FALSE
10                  CCNc1cc2c3c(c1)CCCN3CCC2     FALSE
11         O=CC[C@H]1CCc2ccccc2C12CCC(=O)CC2     FALSE
12                  O=C(CCCc1ccccn1)c1ccccc1     FALSE
13  CC(=O)O[C@@H]1CC(C)C2CC2C2=C(C(O)OC2O)[C@@H]1C(C)CCC=C(C)C (stereo not given in full)     FALSE
14  CC1(C)CC(=O)c2c(nc3ccc4ccccc4c3c2-c2ccc(NC(=O)CCCCCCCCC(=O)Nc3ccc(-c4c5c(nc6ccc7ccccc7c46)CC(C)(C)CC5=O)cc3)cc2)C1     FALSE
15        N=c1oc2ccc(Cl)cc2cc1C(=O)NC1CCCCC1     FALSE
16  O=C1CCC[C@H]2O[C@@H](COC(=O)c3ccccc3)C[C@H]2O1     FALSE
17  O=[N+]([O-])c1ccc(/N=N/c2c(O)ccc3cc(S(=O)(=O)O)ccc23)cc1     FALSE
18  COc1cc(OCCN(C)C)c2[nH]c(C(=O)N3CC(CCl)c4ccc(N)cc43)cc2c1 (stereo not given)      TRUE
19   N=c1oc2cc(O)ccc2cc1C(=O)Nc1cccc2ccccc12     FALSE
20  COC1=C(OC)C(=O)C(Cc2c(Cl)nc3sccn23)=C(C)C1=O     FALSE

----------
Tested on: DU-145
Assay: NCI tumour cell line growth inhibition, 48 h
The source made the active and inactive calls. Cut-off read from the data, not from the text of the source: active = GI50 up to about 1.1 µM and inactive = higher.
Listed molecules paired with reported GI50
experimental endpoint: GI50

> print(dat)
                                    molecule  tested.target               result
 1      Cc1cc(C)c2c(=O)cc(-c3ccccc3)[nH]c2c1         DU-145   4.44 µM (inactive)
 2  NC1CC(=O)c2c(Cl)sc(Cl)c21 (stereo unspecified)         DU-145   5.55 µM (inactive)
 3  N#CC1C(=S)NC(c2ccccc2)=CC12CCCCC2 (stereo unspecified)         DU-145   26.6 µM (inactive)
 4  COc1ccc(NC(C)=O)cc1C1CCC(=O)N1 (stereo unspecified)         DU-145  > 100 µM (inactive)
 5  COc1ccc(/C=C2/CSCC3=C2N=C(S)NC3c2ccc(OC)c(OC)c2OC)c(OC)c1OC (stereo unspecified)         DU-145   38.3 µM (inactive)
 6  Nc1ncc2c(n1)-c1ccccc1OC2N1CCCCC1 (stereo unspecified)         DU-145  > 100 µM (inactive)
 7  Cc1cn(CC(=S)NCCc2c[nH]c3ccccc23)c(=O)[nH]c1=O         DU-145  > 100 µM (inactive)
 8                   CSc1nc(=O)n(CCC#N)nc1SC         DU-145   51.8 µM (inactive)
 9  CC(=O)OC1CC[C@@]2(C)C(=CC[C@@H]3[C@@H]2CC[C@]2(C)C(OC(C)=O)[C@H](n4ccnc4)C[C@@H]32)C1 (stereo partly specified)         DU-145   73.5 µM (inactive)
10               N#C/C(=C/C=C/c1ccco1)C(N)=O         DU-145   > 10 µM (inactive)
11  Nc1cc(CO)cc(Nc2nc3ccc(Cl)cc3c3[nH]c4ccccc4c23)c1         DU-145   3.65 µM (inactive)
